# Test system: AAK1 (Homo sapiens)
# Construct: NP_055726.2
# Assay summary: P81 filter plate assay
# Format: biochemical
# Test context: full-length human AAK1, Mu2 substrate, 33P-ATP
Assay metric: IC50

COc1ncccc1-c1cnn2ccc(N3CCN4C(=O)N(CC(C)C)CC4C3)nc12 (centres unmarked) | ≤ 10 nM
CC(C)OC(=O)N1CCN(c2ccn3ncc(-c4ccc(OCCN)cc4)c3n2)CC1 | ≤ 10 nM
COCCOCCOC(=O)N1CCN(c2ccn3ncc(-c4cccnc4OC)c3n2)CC1 | ≤ 100 nM
COc1nc(C)ccc1-c1cnn2ccc(N(C)CCN(C)C(=O)OC(C)C)nc12 | ≤ 100 nM
Cc1ccc(-c2cnn3ccc(N4CC[C@H](N(C)C(=O)OC(C)C)C4)nc23)c(=O)n1C | ≤ 1000 nM
COc1ncccc1-c1cnn2ccc(N3CCN(C(=O)OC(C)C)C3=O)nc12 | ≤ 1000 nM
COCC(C)(C)OC(=O)N1CCN(c2ccn3ncc(-c4cccnc4OC)c3n2)CC1 | ≤ 10 nM
COc1ccc(F)cc1-c1cnn2ccc(N3CCN(C(=O)[C@@H](N)CC(C)C)CC3)nc12 | ≤ 10 nM
COC(=O)c1ccc(-c2cnn3ccc(N4CCN(C(=O)OC(C)C)CC4)nc23)cc1 | ≤ 100 nM
COc1nc(C)ccc1-c1cnn2ccc(N(C)CCCOC(C)(C)C)nc12 | ≤ 100 nM

Form: molecule = [2H]C([2H])([2H])Oc1ncccc1-c1cnn2ccc(N3CCN(C(=O)OC(C)(C)C)CC3)nc12 ; IC50 = ≤ 10 nM

Form: molecule = [2H]C([2H])([2H])Oc1ncccc1-c1cnn2ccc(N3CCN(C(=O)OCC)CC3)nc12 ; IC50 = ≤ 10 nM

Form: molecule = COCCOc1ncccc1-c1cnn2ccc(N3CCN(C(=O)OC(C)C)CC3)nc12 ; IC50 = ≤ 100 nM

Form: molecule = COc1ncccc1-c1cnn2ccc(N3CCN(C(=O)O[C@H]4CCOC4)CC3)nc12 ; IC50 = ≤ 10 nM

Form: molecule = [2H]C1([2H])N(C(=O)OC(C)C)C([2H])([2H])C([2H])([2H])N(c2ccn3ncc(-c4ccc(C)nc4OC)c3n2)C1([2H])[2H] ; IC50 = ≤ 10 nM

====

# Test system: AAK1 (Homo sapiens, UniProt Q2M2I8)
# Construct: NP_055726.2
# Sequence (Q2M2I8 1-863 isoform Q2M2I8-2): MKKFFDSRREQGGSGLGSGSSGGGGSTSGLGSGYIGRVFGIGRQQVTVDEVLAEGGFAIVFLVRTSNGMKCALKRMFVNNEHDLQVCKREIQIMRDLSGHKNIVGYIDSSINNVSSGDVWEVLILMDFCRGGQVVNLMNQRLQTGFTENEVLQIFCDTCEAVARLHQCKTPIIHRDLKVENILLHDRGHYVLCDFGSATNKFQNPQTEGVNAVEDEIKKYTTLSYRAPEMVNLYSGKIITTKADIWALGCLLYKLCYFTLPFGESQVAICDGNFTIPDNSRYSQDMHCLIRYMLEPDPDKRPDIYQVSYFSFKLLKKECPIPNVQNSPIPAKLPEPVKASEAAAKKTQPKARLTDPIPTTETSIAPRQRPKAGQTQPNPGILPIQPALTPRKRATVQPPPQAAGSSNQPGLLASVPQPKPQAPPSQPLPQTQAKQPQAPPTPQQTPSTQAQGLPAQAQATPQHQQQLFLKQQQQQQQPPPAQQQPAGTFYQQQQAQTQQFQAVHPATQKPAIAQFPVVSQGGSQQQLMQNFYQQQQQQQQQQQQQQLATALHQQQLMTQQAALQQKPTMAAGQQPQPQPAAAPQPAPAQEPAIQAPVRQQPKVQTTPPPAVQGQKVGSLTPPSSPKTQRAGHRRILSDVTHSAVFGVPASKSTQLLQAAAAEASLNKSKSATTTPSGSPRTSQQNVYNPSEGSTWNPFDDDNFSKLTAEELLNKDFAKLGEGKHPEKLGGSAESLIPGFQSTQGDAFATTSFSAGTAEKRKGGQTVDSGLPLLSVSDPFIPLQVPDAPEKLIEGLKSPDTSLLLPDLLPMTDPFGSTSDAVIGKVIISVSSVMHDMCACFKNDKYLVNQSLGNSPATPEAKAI
# Assay summary: P81 filter plate assay
# Assay type: biochemical
# Test context: full-length human AAK1, Mu2 substrate, 33P-ATP
pIC50: −log10 of the molar value.
Assay metric: pIC50

COc1ccncc1-c1cnn2ccc(NC[C@@H]3CCCN3C(=O)OC(C)(C)C)nc12 | ≥ 8.00

Form: compound = CN[C@@H](CC(C)C)C(=O)N1CCN(c2ccn3ncc(-c4cccnc4OC)c3n2)CC1 ; pIC50 = ≥ 8.00

Form: compound = CCCC(=O)Nc1ccn2ncc(-c3cccnc3OC)c2n1 ; pIC50 = ≥ 7.00

Form: compound = COc1ccc(F)cc1-c1cnn2ccc(N3CCN(C(=O)OC(C)(C)C)CC3)nc12 ; pIC50 = ≥ 8.00

====

# Test system: AAK1 (Homo sapiens, UniProt Q2M2I8)
# Construct: NP_055726.2
# Assay summary: P81 filter plate assay
# Assay type: biochemical
# Test context: full-length human AAK1, Mu2 substrate, 33P-ATP
# Description: Compounds were serially diluted into a Labcyte LDV plate (Labcyte, cat#LP-0200) using a Mutiprobe (PerkinElmer) and Biomek FX (Beckman Coulter) so that the highest compound concentration was at 96 μM. […] The bottom of each filter plate was sealed followed by addition of 20 μl Microscint 40 to each well, sealing the top of the plates with Flashplate cover, and then waiting one hour until reading on the TopCount (PerkinElmer).
Quick list: IC50 per entry.

CC(C)(C)[C@H](N)C(=O)N1CCN(c2ccn3ncc(-c4ccccc4)c3n2)CC1 | ≤ 10 nM

Form: molecule = COc1ccccc1-c1cnn2ccc(N3CCN(C(=O)[C@@H](N)C(C)C)CC3)nc12 ; IC50 = ≤ 10 nM

Form: molecule = COCC(C)OC(=O)N1CCN(c2ccn3ncc(-c4cccnc4OC)c3n2)CC1 (centres unmarked) ; IC50 = ≤ 10 nM

Form: molecule = CCOc1ncccc1-c1cnn2ccc(N3CCN(C(=O)OC(C)C)CC3)nc12 ; IC50 = ≤ 10 nM

Form: molecule = COc1ncncc1-c1cnn2ccc(N3CCN(C(=O)OC(C)C)CC3)nc12 ; IC50 = ≤ 100 nM

Data origin, for the record: patent US9403832B2
